Experiment: Quantitative High-Throughput drug screen in 47 multiple myeloma cell lines against the NCATS MIPE library collection: JIM3_ECACC cell viability assay (AID 1918963; further: nearly all actives have a fitted effect of over 35% in size)
Conditions: JIM3 myeloma viability, CellTiter-Glo ATP, 48 h; series mostly up to 45.8 µM
Results filed as inconclusive are left out. The source made the active and inactive calls. The call rests on the fitted dose curve; in most records, active means well fitted cell-killing curve with a large enough effect; inconclusive means small, poorly fitted or top-dose-only effect; inactive means no such curve, though single readings can be large or run the other way.
Mark one answer only. Choices: 1 (active), -1 (inactive)

[[record]]
compound = "CCCCCCCCCCCCCCCC(=O)OC[C@@H](NC(=O)C(Cl)Cl)[C@H](O)c1ccc([N+](=O)[O-])cc1"
assigned_class = -1

[[record]]
compound = "CC(C)N(CC[C@H](c1ccccc1)c1cc(CO)ccc1O)C(C)C"
assigned_class = -1

[[record]]
compound = "Cc1cnc(NC(=O)Nc2cc(Br)c(C)cc2OC[C@@H]2CNCCO2)cn1"
assigned_class = 1

[[record]]
compound = "OC[C@@H](O)[C@@H](O)[C@H](O)[C@@H](O)CO"
assigned_class = -1


Prompt: Please indicate how the test categorized C=C1CCC2[C@](C)(CO)C(O)CC[C@]2(C)C1CC=C1C(=O)OCC1O (stereo not given in full) .
Response: -1

----------
Assay: qHTS of pediatric cancer cell lines to identify multiple opportunities for drug repurposing: Primary screen for Saos-2 cells (AID 1347097); further: nearly all actives have a fitted effect of over 40% in size
Details: Saos-2 viability, CellTiter-Glo ATP luminescence, 48 h; series mostly up to 46 µM
Inconclusive results are not listed. Calls of active or inactive are those of the source. Calls come from the whole dose curve; as a rule, active = well fitted cell-killing curve with a large enough effect; inconclusive = small, poorly fitted or top-dose-only effect; inactive = no such curve, though single readings can be large or run the other way. Starred links: 1 amine or outer side, 2 acyl side, 3 side chain; linkers in the order of their positions; H or OH if unused. Positions of bridges follow the written chain, without caps; N, C: chain ends. Non-standard residues stand in square brackets, D forms with d. Residues, ends and D or L forms follow the SMILES beside them. Chains are numbered I, II in the order given. Actinocin(9to1) = Cc1c2oc3c(C)ccc(C(=O)[*:1])c3nc-2c(C(=O)[*:2])c(N)c1=O; NMeV = CN[CH](C(=O)O)C(C)C; Sar = CNCC(=O)O
Mark one answer only. Choices: 1 (yes) for active, 0 (no) for inactive

Example cases with answers are listed next.
[[record]]
molecule = "Cc1c2oc3c(C)ccc(C(=O)NC4C(=O)NC(C(C)C)C(=O)N5CCCC5C(=O)N(C)CC(=O)N(C)C(C(C)C)C(=O)OC4C)c3nc-2c(C(=O)NC2C(=O)NC(C(C)C)C(=O)N3CCCC3C(=O)N(C)CC(=O)N(C)C(C(C)C)C(=O)OC2C)c(N)c1=O (stereo not drawn) (I: TVP[Sar][NMeV] / II: TVP[Sar][NMeV]; ester I:1-I:C, II:1-II:C; linker I:N-II:N via Actinocin(9to1); configuration not given here)"
assigned_class = "1 (yes)"

[[record]]
molecule = "CN1CCc2c(c3ccccc3n2Cc2ccc(C(=O)NO)cc2)C1"
assigned_class = "1 (yes)"

[[record]]
molecule = "O=C(O)CCCCCC(=O)NN=C1CCCC1"
assigned_class = "0 (no)"

[[record]]
molecule = "CC(C)c1cnn2c(NCc3ccccc3)cc(NCCCCCCN)nc12"
assigned_class = "1 (yes)"

[[record]]
molecule = "C[C@H](O)[C@@H]1C(=O)N2C(C(=O)O)=C(S[C@@H]3CN[C@H](CNS(N)(=O)=O)C3)[C@@H](C)[C@@H]12"
assigned_class = "0 (no)"

[[record]]
molecule = "COc1ccc(C=Cc2cc(OC)c(OC)c(OC)c2)cc1NC(=O)[C@H](N)CO"
assigned_class = "1 (yes)"

[[record]]
molecule = "CC(=O)SCC(Cc1ccccc1)C(=O)NCC(=O)OCc1ccccc1 (stereo not drawn)"
assigned_class = "1 (yes)"


Prompt: Please indicate how the test categorized Cn1cc(C[C@@H](N)C(=O)O)c2ccccc21 .
Response: 0 (no)
